Tested on: PC-3 prostate
Experiment: NCI-60 one-dose screen, 48 h (100 = growth as untreated, 0 = no growth, -100 = all killed)
Details: 10 µM unless noted
This is part of a sample that, as a whole, favours compounds with a hit. Of some 83,000 tested, about 20% had one in any assay. The source made the active and inactive calls. Rule for the calls: active = growth percent below 10; inactive = the rest.
MEASUREMENT_LABEL: growth

Input COc1ccc(/C=C/c2c(C(=O)/C=C/c3ccc(F)cc3)c(C)nc3ccccc23)cc1 . Output growth: 41.7% (inactive)

Input Oc1ccc(CN2CCC(N3CCOCC3)CC2)c2cccnc12 . Output growth: 15.3% (inactive)

Input CC(C)(C)n1cc(-c2ccnc(NCCCNS(=O)(=O)c3ccccc3)c2)c(-c2ccccc2)n1 . Output growth: 35.6% (inactive)

Input COc1ccc(-c2c(N)n[nH]c2-c2ccc(Cl)cc2O)cc1OC . Output growth: 86.3% (inactive)

Input N#CC1=C(c2ccc(Br)cc2)NC(SCC(=O)c2ccc(Br)cc2)NC1=O (stereo not given) . Output growth: 92.4% (inactive)

Input Cc1nn(-c2ccccc2)c(Oc2ccc(Cl)cc2)c1/C=N\N=c1/sc2ccccc2n1C . Output growth: 62.3% (inactive)

Input CN(C)CC1C(=O)O[C@H]2[C@H]1CC/C(COC(=O)c1cc3ccccc3[nH]1)=C\CC[C@@]1(C)O[C@@H]21 (stereo not given in full) . Output growth: -23.7% (active)

Input O=C(/C=C/c1c(Cl)nc2sccn12)c1ccc(F)c(F)c1 . Output growth: 78.8% (inactive)

Input CCN(CC)Cc1cccc(C(=O)OC)c1 . Output growth: 78.1% (inactive)

Input C#Cc1cccc(NC(=O)c2ccc(NC(=O)CCl)cc2)c1 . Output growth: -46.6% [8.25 µM] (active)

Input Cc1cc(Cl)ccc1Nc1nc(C(F)(F)F)ccc1C(=O)N/N=C/c1ccc(N(C)C)cc1 . Output growth: 30.3% (inactive)

Input CC(CCc1ccc(Cl)c(Cl)c1)NCc1ccc(C(C)(C)C)cc1 (stereo not given) . Output growth: 77.5% (inactive)

Input O=C(COc1ccc(/C=C2\Oc3ccccc3C2=O)cc1)Nc1nc2ccccc2s1 . Output growth: 13.7% (inactive)

Input COc1ccc(-c2nc3c(N)c(CO)c(C)nc3o2)cc1 . Output growth: 103% (inactive)

Input COc1ccc2c(c1)O/C(=C\c1cccc(OCC(=O)Nc3nc4ccccc4s3)c1)C2=O . Output growth: 35% (inactive)

Input CCN1CCN(c2nc(C)cc(NCc3cc(Nc4ccnc5cc(Cl)ccc45)ccc3F)n2)CC1 . Output growth: 19.5% (inactive)

Input O=c1c2c3c(sc2nc(N/N=C/c2ccc(Br)cc2)n1Cc1ccccc1)CCCC3 . Output growth: 70.2% (inactive)

Input Cc1ccc(-c2c(-c3ccccc3)c(=O)oc3ccc(C)cc23)cc1 . Output growth: 56.4% (inactive)

Input O=C(Nc1cccc(Oc2nnc(Cl)c3ccccc23)c1)Nc1ccc(Cl)c(C(F)(F)F)c1 . Output growth: -38.1% (active)

Input C[C@@]1(CCC#N)[C@H]2CC[C@@H]3[C@H]4[C@H](C(=O)/C=C/c5cccnc5)CC[C@]4(C#N)CC[C@@]3(C)[C@]2(C)CC[C@H]1C(=O)/C=C/c1cccnc1 . Output growth: 65% (inactive)

###

Test system: HT29 colon
Assay: NCI-60 one-dose screen, 48 h
Settings: 10 µM unless noted
Compounds without any hit were thinned out: in the full panel of roughly 83,000, 20% have a hit. Calls of active or inactive are those of the source. The calls were made as follows: active = growth percent below 10; inactive = the rest.
Allowed answers: active, inactive

Query :: What call does the record list for CCOc1c(C#N)nnc2c(C#N)c(NC(=O)c3ccccc3)nn12 ?
Result :: inactive

Query :: What call does the record list for Cn1ccc2c(c1=O)C(=O)c1nccc3c1c-2nc1ccccc13 ?
Result :: active

Query :: What call does the record list for O=C(Cc1ccc(F)c(F)c1)Nc1cc(C2(C(F)(F)F)CC2)nn1Cc1ccccc1 ?
Result :: inactive

Query :: What call does the record list for O=C(c1ccc(Nc2nccc(NCCCCNc3ccnc4cc(Cl)ccc34)n2)cc1)N1CCCCC1 ?
Result :: active

Query :: What call does the record list for O=C1/C(=C/c2ccc(F)cc2)C=C(c2ccccc2)N1CCc1ccccc1 ?
Result :: inactive

Query :: What call does the record list for CCCCC1CCCCN1C(=O)OCC (stereo unspecified) ?
Result :: inactive

Query :: What call does the record list for Cc1cc(C)c2c(-c3nnc(N)s3)cc(=O)oc2c1 ?
Result :: inactive

Query :: What call does the record list for O=C1CC(N2C(=O)/C(=C/C(Cl)=C\c3ccc([N+](=O)[O-])cc3)SC2=S)C(=O)N1c1ccc(O)cc1 (stereo unspecified) ?
Result :: active

Query :: What call does the record list for COc1ccc(N=Nc2ccc(O)c(=O)cc2)cc1 ?
Result :: inactive

Query :: What call does the record list for CCCCCCCOc1c(OC)cc(C2CC(=O)Nc3c2c(C)nn3-c2nc3ccccc3[nH]2)cc1OC (stereo unspecified) ?
Result :: active

Query :: What call does the record list for Cc1cc(=O)oc2c1ccc1oc(C#N)c(C)c12 ?
Result :: inactive

Query :: What call does the record list for O=[N+]([O-])c1ccc(N2c3ccncc3Sc3ccncc32)cc1 ?
Result :: inactive

Query :: What call does the record list for Nc1nc(N)c2c(n1)NC(c1ccccc1)C1CCc3ccccc3C1=N2 (stereo unspecified) ?
Result :: inactive

Query :: What call does the record list for O=[N+]([O-])c1ccc(Sc2cccc[n+]2[O-])c2nonc12 ?
Result :: inactive

Query :: What call does the record list for Cc1ccc(-c2cc3c(cc2O)C2CCCCC2(N2CCOCC2)O3)cc1 (stereo unspecified) ?
Result :: inactive

Query :: What call does the record list for COc1cccc(-c2nn(-c3ccccc3)cc2-c2ccnc(NCCCNC(=O)c3cccc(C(F)(F)F)c3)c2)c1 ?
Result :: active

Query :: What call does the record list for COc1ccc(-c2nc(SCCC(C)C)nc(N/N=C\c3cccc(Cl)c3)c2C#N)cc1 ?
Result :: inactive

Query :: What call does the record list for COc1ccc2[nH]c(O)c(/C=c3/cc4c(c(-c5cc(OC)c(OC)c(OC)c5)n3)=Nc3ccccc3-4)c2c1 ?
Result :: inactive

Query :: What call does the record list for CCN1C(=O)N(CC)C2Nn3c(s/c(=C4\C(=O)N(C)c5ccccc54)c3=O)=NC21 (stereo unspecified) ?
Result :: inactive

Query :: What call does the record list for O=C(O)C1CCC(=O)N1C(=O)OCc1ccccc1 (stereo unspecified) ?
Result :: inactive

Query :: What call does the record list for CCCCCc1nc2c(c3c1CCCC3)CCCC2 ?
Result :: inactive

###

Tested on: EKVX NSCLC
Test: NCI-60 one-dose screen, 48 h
Conditions: 10 µM unless noted
This is part of a sample that, as a whole, favours compounds with a hit. Of some 83,000 tested, about 20% had one in any assay. The source made the active and inactive calls. The calls were made as follows: active = growth percent below 10; inactive = the rest.
Allowed answers: active, inactive

Query :: What call does the record list for COc1cccc(-c2nc3sccn3c2-c2ccnc(NCCNS(=O)(=O)c3cccc(Cl)c3)c2)c1 ?
Result :: inactive

Query :: What call does the record list for CCN(CC)c1nc(SCC(=O)Nc2nc3ccc(C)cc3s2)nc(-c2ccccc2)c1C#N ?
Result :: inactive

Query :: What call does the record list for Cc1ccc(N2CCN(C(=S)c3cccs3)CC2)cc1 ?
Result :: inactive

Query :: What call does the record list for CCN1CCN(c2nc(C)cc(NCc3cc(Nc4ccnc5cc(Cl)ccc45)ccc3F)n2)CC1 ?
Result :: inactive

Query :: What call does the record list for O=C1/C(=C\c2c[nH]c3ccccc23)c2ccccc2N1c1c(Cl)cccc1Cl ?
Result :: active

Query :: What call does the record list for COc1cc(C(=O)/C=C/c2c(-c3ccc(F)cc3)nc3sc(C)cn23)cc(OC)c1OC ?
Result :: inactive

Query :: What call does the record list for COc1nc(N(C)O)nc(N(C)O)n1 ?
Result :: inactive

Query :: What call does the record list for O=C(Nc1cccc(C(F)(F)F)c1)Nc1cccc(C(F)(F)F)c1 ?
Result :: inactive

Query :: What call does the record list for CN(C)CC1=NC2SC=C(c3ccccc3)C2C(=O)N1CC#N (stereo not given) ?
Result :: inactive

Query :: What call does the record list for CC(C)(C)CC(C)(C)Nc1c(-c2ccncc2)nc2cnccn12 ?
Result :: inactive

Query :: What call does the record list for C=C(C)[C@@H]1CC[C@]2(C(=O)NC3CCCCC3)CC[C@]3(C)[C@H](CC[C@@H]4[C@@]5(C)CCC(=O)C(C)(C)[C@@H]5CC[C@]43C)[C@@H]12 ?
Result :: inactive

Query :: What call does the record list for O=c1c2c3c(sc2n2c(-c4cc(-c5ccccc5)nn4-c4ccccc4)nnc2n1Cc1ccccc1)CCCC3 ?
Result :: inactive

Query :: What call does the record list for COc1cc(N2C(=O)c3nccnc3C2=O)cc(OC)c1OC ?
Result :: inactive

Query :: What call does the record list for Cc1cc(NCc2cc(Nc3ccnc4cc(Cl)ccc34)ccc2F)nc(N2CCN(C)CC2)n1 ?
Result :: inactive

Query :: What call does the record list for Cn1c(-c2c(N)n(Cc3ccc(C(F)(F)F)cc3)c3nc(C#N)c(C#N)nc23)nc2ccccc21 ?
Result :: active

Query :: What call does the record list for COc1cccc(-c2nc3sccn3c2-c2ccnc(NCCNS(=O)(=O)c3cccc(F)c3)c2)c1 ?
Result :: inactive

Query :: What call does the record list for COc1ccc(N=C(c2ccccc2)C2C(=O)c3ccccc3C2=O)cc1 ?
Result :: inactive

Query :: What call does the record list for NC[C@H](O)c1ccc(O)c(O)c1 ?
Result :: inactive

Query :: What call does the record list for CC(CCc1ccc(Cl)c(Cl)c1)NCc1ccc(C(C)(C)C)cc1 (stereo not given) ?
Result :: inactive

Query :: What call does the record list for CC/C=C\C[C@H](O)C/C=C1/C(=O)C=C[C@@H]1C/C=C\CCCC(=O)OC ?
Result :: inactive
